Provenance of the data: BindingDB's records for doi:10.1021/jm00080a021

- ASSAYED TARGET: Ribonucleoside-diphosphate reductase large subunit R1 (Herpes simplex virus type 1)
- METHOD: Inhibitory concentration against HSV-1 ribonucleotide reductase R1 protein binding
Each entry below carries its reported IC50.

Given the entry `Ac-YAGTVINCL-OH` , report its measured IC50.
> 1000 µM

More entries:
Given the entry `Ac-YAGTVINSL-OH` , report its measured IC50.
> 1000 µM

----------
Each entry below carries its reported IC50.
- ASSAYED TARGET: Ribonucleoside-diphosphate reductase large subunit R1 (Herpes simplex virus type 1)
- METHOD: Inhibitory concentration against HSV-1 ribonucleotide reductase R1 protein binding
A number alone suffices; assume µM.

Given the entry `CC[C@H](C)[C@H](NC(=O)[C@@H](NC(=O)[C@@H](NC(=O)CNC(=O)[C@H](C)NC(=O)[C@H](Cc1ccc(O)cc1)NC(C)=O)[C@@H](C)O)C(C)C)C(=O)N[C@@H](CC(N)=O)C(=O)N[C@@H](CC(N)=O)C(=O)N[C@@H](CC(C)C)C(=O)O` , report its measured IC50.
640

More entries:
Given the entry `CC[C@H](C)[C@H](NC(=O)[C@@H](NC(=O)[C@@H](NC(=O)CNC(=O)[C@H](C)NC(=O)[C@H](Cc1ccc(O)cc1)NC(C)=O)[C@@H](C)O)C(C)C)C(=O)N[C@@H](CC(N)=O)C(=O)N[C@@H](CCC(=O)O)C(=O)N[C@@H](CC(C)C)C(=O)O` , report its measured IC50.
650

What do we get for `CC[C@H](C)[C@H](NC(=O)[C@@H](NC(=O)[C@@H](NC(=O)CNC(=O)[C@H](C)NC(=O)[C@H](Cc1ccc(O)cc1)NC(C)=O)[C@@H](C)O)C(C)C)C(=O)N[C@@H](CO)C(=O)N[C@@H](CC(=O)O)C(=O)N[C@@H](CC(C)C)C(=O)O` ?
395
